Source: paper PMC5855875

tested on: MRSA 2: MRSA DR 42412 (sputum); assay: microbe, parasite or virus in culture; details: 2: DR 42412 (sputum, 24 h)
Bridge positions count the residues as written; N and C are the ends. Square brackets hold non-standard residues; d marks the D form. Peptide text beside a SMILES is read from it. d(aIle) = CC[C@H](C)[C@@H](N)C(=O)O; dNMeF = CN[C@H](Cc1ccccc1)C(=O)O
observation_type: MIC (without polysorbate 80) (µg/mL)
Give a bare numeral; the unit µg/mL is implied.

[in] For CC[C@H](C)[C@H](NC(=O)[C@@H](Cc1ccccc1)NC)C(=O)N[C@@H](CO)C(=O)N[C@H](CCC(N)=O)C(=O)N[C@@H](C(=O)N[C@H](C(=O)N[C@@H](CO)C(=O)N[C@H]1C(=O)N[C@@H](C)C(=O)N[C@@H](CCCNC(=N)N)C(=O)N[C@@H]([C@@H](C)CC)C(=O)O[C@H]1C)[C@@H](C)CC)[C@@H](C)CC , what is its reported MIC (without polysorbate 80)?
[out] 2

[in] Then what about the molecule CC[C@H](C)[C@@H]1NC(=O)[C@H](C)NC(=O)[C@H](NC(=O)[C@H](CO)NC(=O)[C@@H](NC(=O)[C@H](NC(=O)[C@@H](CCC(N)=O)NC(=O)[C@H](CO)NC(=O)[C@@H](NC(=O)[C@@H](Cc2ccccc2)NC)[C@@H](C)CC)[C@@H](C)CC)[C@@H](C)CC)[C@H](C)OC(=O)[C@H]([C@@H](C)CC)NC1=O [Compound 12, Ile10-teixobactin] (H-[dNMeF]IS[dQ][d(aIle)]IS[dT]AII; ester 8-C) ?
[out] 2

[in] CC[C@H](C)[C@H](NC(=O)[C@@H](Cc1ccccc1)NC)C(=O)N[C@@H](CO)C(=O)N[C@H](CCC(N)=O)C(=O)N[C@@H](C(=O)N[C@H](C(=O)N[C@@H](CO)C(=O)N[C@H]1C(=O)N[C@@H](C)C(=O)N[C@@H](CC(C)C)C(=O)N[C@@H]([C@@H](C)CC)C(=O)O[C@H]1C)[C@@H](C)CC)[C@@H](C)CC [Compound 13, Leu10-teixobactin] (H-[dNMeF]IS[dQ][d(aIle)]IS[dT]ALI; ester 8-C) , same question.
[out] 2

[in] Next molecule: CC[C@H](C)[C@H](NC(=O)[C@@H](Cc1ccccc1)NC)C(=O)N[C@@H](CO)C(=O)N[C@H](CCC(N)=O)C(=O)N[C@@H](C(=O)N[C@H](C(=O)N[C@@H](CO)C(=O)N[C@H]1C(=O)N[C@@H](C)C(=O)N[C@@H](C)C(=O)N[C@@H]([C@@H](C)CC)C(=O)O[C@H]1C)[C@@H](C)CC)[C@@H](C)CC [Compound 8, Ala10-teixobactin] (H-[dNMeF]IS[dQ][d(aIle)]IS[dT]AAI; ester 8-C)
[out] 4
